Tested on: MDA-MB-435 melanoma
Test: NCI-60 one-dose screen, 48 h
Details: 10 µM unless noted
Compounds without any hit were thinned out: in the full panel of roughly 83,000, 20% have a hit. Calls of active or inactive are those of the source. The calls were made as follows: active = growth percent below 10; inactive = the rest.
Reply using exactly one outcome from active, inactive

Per the assay record, what outcome was assigned to `COc1ccc(-c2ccc(SCC(=O)NCCc3ccc(S(N)(=O)=O)cc3)nn2)cc1` ? inactive

Per the assay record, what outcome was assigned to `O=C1N/C(=N\c2nccs2)S/C1=C\C=C/c1ccccc1` ? inactive

Per the assay record, what outcome was assigned to CC1CCCCN1CCCNC(=O)N/C(N)=N/c1nc2ccccc2s1 (stereo not drawn) ? active

Per the assay record, what outcome was assigned to `O=C(Nc1ccccc1)N1CCN(c2cc(-c3cn(-c4ccccc4)nc3-c3cccc(O)c3)ccn2)CC1` ? inactive

Per the assay record, what outcome was assigned to `COc1ccccc1C(=O)NN1C(=O)/C(=C/C2=Cc3ccccc3OC2)SC1=S` ? inactive

Per the assay record, what outcome was assigned to C=C1CC[C@@H]2[C@]3(C)COC(c4cn[nH]c4-c4cccc(Br)c4)O[C@@H]3CC[C@@]2(C)[C@@H]1C/C=C1/C(=O)OCC1O (stereo partly drawn) ? active

Per the assay record, what outcome was assigned to `N/C(=N\c1nc2ccccc2s1)NC(=O)Nc1ccccc1Br` ? active

Per the assay record, what outcome was assigned to COc1cc2c(c(OC)c1OC)C(=O)CC(c1cccc(NC(=O)c3cc([N+](=O)[O-])ccc3Cl)c1)O2 (stereo not drawn) ? inactive

Per the assay record, what outcome was assigned to `NC(=S)Nc1cccc(NC(N)=S)c1` ? inactive

Per the assay record, what outcome was assigned to `COc1cc2oc(-c3cccc(C(=O)Nc4ccc(Cl)cc4)c3)cc(=O)c2c(OCCNC(=O)[C@H](CCC(=O)OC(C)(C)C)NC(=O)OC(C)(C)C)c1OC` ? inactive

Per the assay record, what outcome was assigned to `CCOC(=O)c1ccc(Nc2nc(NN)nc(-c3ccc(OC)cc3)c2C#N)cc1` ? inactive

Per the assay record, what outcome was assigned to `CC(C)c1ccc2c(N)c(C(=O)Nc3cccc(C(F)(F)F)c3)sc2n1` ? inactive

Per the assay record, what outcome was assigned to `COc1cc2c3c(n(CCCN4CCC[C@@H]4CO)c(=O)c2cc1OC)-c1cc2c(cc1C3=O)OCO2` ? active

Per the assay record, what outcome was assigned to COc1c(F)ccc(C(=O)Nc2ccc3nc(NC(=O)C4CCCN(S(=O)(=O)c5ccc(Cl)cc5)C4)sc3c2)c1F (stereo not drawn) ? inactive

Per the assay record, what outcome was assigned to COc1c(F)ccc(C(=O)Nc2ccc3nc(NC(=O)C4CCCN(S(=O)(=O)c5cccc(Br)c5)C4)sc3c2)c1F (stereo not drawn) ? inactive

Per the assay record, what outcome was assigned to `O=C(O)Cn1c(O)c(/C=C2/C=c3cc4c(cc3=NC2=O)OCCO4)sc1=S` ? inactive

Per the assay record, what outcome was assigned to `COc1cc(-c2cc(-c3cccc(OCC(=O)O)c3)[nH]c(=O)c2C#N)cc(OC)c1OC` ? inactive

Per the assay record, what outcome was assigned to `COc1ccc(/C=C2\C(=N)N=C(SCc3nc4ccccc4[nH]3)NC2=O)cc1` ? inactive

Per the assay record, what outcome was assigned to `C[C@H]1CN(C(=O)c2ccc3c(NNC(=O)c4ccncn4)nc4cc(F)c(F)cc4n23)CCN1` ? inactive

Per the assay record, what outcome was assigned to `O=c1oc2ccc(Br)cc2cc1C1=CSc2nc3sc4c(c3c(=O)n2N=C1)CCCC4` ? inactive

Per the assay record, what outcome was assigned to `O=C(Cn1c(/C=C/c2ccccc2)nc2ccccc2c1=O)Nc1ccc(Cl)cc1` ? inactive

Per the assay record, what outcome was assigned to `Nc1cccc(SCc2cc3ccccc3[nH]c2=O)c1` ? inactive

Per the assay record, what outcome was assigned to `CCCSc1nc(Nc2ccc(S(N)(=O)=O)cc2)c(C#N)c(-c2ccc(Cl)cc2)n1` ? inactive

Per the assay record, what outcome was assigned to `CSc1ccc(NC(=O)c2ccc3nn(/C(C#N)=C/c4ccccn4)nc3c2)cc1` ? active

Per the assay record, what outcome was assigned to `Cc1cc2c(cc1Cl)C(=O)/C(=C/c1ccccc1)O2` ? inactive

Per the assay record, what outcome was assigned to `N#Cc1ccc(/C=N/NC(=O)c2[nH]c3ccc(Br)cc3c2-c2ccccc2)o1` ? active

Per the assay record, what outcome was assigned to `CCCCc1c(Nn2cnnn2)no[n+]1[O-]` ? inactive

Per the assay record, what outcome was assigned to COc1ccc(CCC2c3c(cc4c(c3OC)OCO4)CCN2C)cc1 (stereo not drawn) ? active

Per the assay record, what outcome was assigned to O=c1oc2ccccc2cc1-c1csc(N2N=C(c3ccccc3)CC2c2ccc(N3CCOCC3)cc2)n1 (stereo not drawn) ? inactive

Per the assay record, what outcome was assigned to `N#Cc1c(-c2ccc(Br)cc2)nc2n[nH]c(-c3ccc(Br)cc3)c2c1-c1ccc(F)cc1` ? inactive

Per the assay record, what outcome was assigned to `Cc1ccc(-c2nnc3ccc(N/N=C/c4ccccc4)nn23)cc1` ? inactive

Per the assay record, what outcome was assigned to CC(=O)Oc1ccc(/C=C/C(=O)N[C@@H](Cc2ccccc2)C(O)C(=O)NCc2ccccc2)cc1OC(C)=O (stereo partly drawn) ? inactive

Per the assay record, what outcome was assigned to O=C(NNc1nc2cc(F)ccc2n2c(CN3CC4CNCC4C3)ccc12)c1ccncn1 (stereo not drawn) ? inactive

Per the assay record, what outcome was assigned to `COc1cc2oc(-c3cccc(NC(=O)[C@H](Cc4ccccc4)NC(=O)OC(C)(C)C)c3)cc(=O)c2c(OC)c1OC` ? inactive

Per the assay record, what outcome was assigned to `COc1ccc(C(=O)/C=C/c2cccc(Cl)c2Cl)cc1S(N)(=O)=O` ? inactive

Per the assay record, what outcome was assigned to `Cn1cc(-c2nc(N)nnc2-c2c[nH]c3ccc(F)cc23)c2cc(Br)cnc21` ? active

Per the assay record, what outcome was assigned to COc1ccc(C2=NN(c3ccccc3)C(c3ccc(OCc4ccccc4)c(OC)c3)C2)cc1OC (stereo not drawn) ? inactive

Per the assay record, what outcome was assigned to `Cc1ccc(-n2c(-c3cc4ccccc4nc3Cl)noc2=O)cc1` ? active
